- TESTED TARGET: furin, P09958;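 further: purified furin at 1:10 enzyme:substrate in 50 mM HEPES pH 7.5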
- Sequence (P09958 whole entry): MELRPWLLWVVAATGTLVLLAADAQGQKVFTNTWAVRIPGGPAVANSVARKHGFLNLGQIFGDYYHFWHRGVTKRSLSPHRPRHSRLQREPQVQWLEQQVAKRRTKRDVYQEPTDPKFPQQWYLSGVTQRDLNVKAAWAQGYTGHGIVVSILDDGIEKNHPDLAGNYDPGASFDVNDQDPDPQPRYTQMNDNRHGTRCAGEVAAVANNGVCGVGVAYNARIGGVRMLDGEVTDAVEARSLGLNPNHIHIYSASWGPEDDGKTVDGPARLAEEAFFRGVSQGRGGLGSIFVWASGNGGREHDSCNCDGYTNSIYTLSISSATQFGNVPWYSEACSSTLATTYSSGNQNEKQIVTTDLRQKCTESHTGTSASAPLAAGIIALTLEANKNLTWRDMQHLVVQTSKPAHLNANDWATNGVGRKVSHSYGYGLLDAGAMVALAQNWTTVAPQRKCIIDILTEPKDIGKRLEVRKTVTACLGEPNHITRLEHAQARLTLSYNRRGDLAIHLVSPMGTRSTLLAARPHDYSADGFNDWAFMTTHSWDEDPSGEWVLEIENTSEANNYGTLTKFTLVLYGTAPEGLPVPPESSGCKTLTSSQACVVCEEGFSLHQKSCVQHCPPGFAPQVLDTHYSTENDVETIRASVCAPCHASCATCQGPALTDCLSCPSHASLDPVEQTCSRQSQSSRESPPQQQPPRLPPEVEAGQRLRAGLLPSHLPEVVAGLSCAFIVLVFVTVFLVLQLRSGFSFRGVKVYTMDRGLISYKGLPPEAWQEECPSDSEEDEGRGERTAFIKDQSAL
- PROTOCOL DESCRIPTION: furin cleavage Z-score vs untreated control; higher = more cleavage, active = 3.5 or more, inactive = 1 or less, 8 variable residues between constant flanks
- CONDITION LABEL: 30 min
The list shows a part of the results. The hit rate among all sequences tested is not known here.
Readings of furin cleavage Z-score for the listed sequences

| RECORD SEQUENCE | furin cleavage Z-score |
| --- | --- |
| CARPKRKGKCAGNASASA [FS-1761] | 1.28 |
| CARKTRSTHTAGNASASA [FS-3226] | 7.23 (active) |
| CARSGRVVGSAGNASASA [FS-3235] | 0.573 (inactive) |
| CAMEECSAHLAGNASASA [HC1723] | 0.224 (inactive) |
| CATTPLSGSWAGNASASA [HC44] | 0.0356 (inactive) |
| CAFLATCINGAGNASASA [HC695] | 0.404 (inactive) |
| CARSKKIFGSAGNASASA [FS-2405] | 0.546 (inactive) |
| CACRAAGLQDAGNASASA [HC1522] | -1.09 (inactive) |
| CARFDRIAHTAGNASASA [FS-2552] | 0.407 (inactive) |
| CACCTTPCSGAGNASASA [HC1960] | -0.858 (inactive) |
| CARRHRATRKAGNASASA [FS-1266] | 6.15 (active) |
| CAWISSECTTAGNASASA [HC1142] | 0.84 (inactive) |
| CAQARRFRRSAGNASASA [FS-844] | 9.61 (active) |
| CADISRIKRGAGNASASA [FS-756] | 2.27 |
| CAMEECSQHCAGNASASA [HC1780] | 1.82 |
| CARSKRDISSAGNASASA [FS-3083] | 9.07 (active) |
| CARRHRARRAAGNASASA [FS-1265] | 9.18 (active) |
| CAGITGDNTTAGNASASA [HC1340] | -0.26 (inactive) |
| CALPFRSKRQAGNASASA [FS-684] | 7.98 (active) |
| CARSKRDGSEAGNASASA [FS-1868] | 5.43 (active) |
| CAALGLERRSAGNASASA [FS-1444] | 0.553 (inactive) |
| CARRHEKKRKAGNASASA [FS-1653] | -1.21 (inactive) |
| CAADAVDGAGAGNASASA [CS10] | 1.15 |
| CARSKRDVGSAGNASASA [FS-2379] | 8.54 (active) |
| CAAPRRPRRPAGNASASA [FS-116] | 0.528 (inactive) |
| CAHIDLLVGSAGNASASA [HC291] | -1.06 (inactive) |
| CAFVQRFRRSAGNASASA [FS-236] | 9.2 (active) |
| CARAGRDVGSAGNASASA [FS-1989] | 2.8 |
| CARFFRYLHTAGNASASA [FS-2920] | 0.025 (inactive) |
| CAIVVTSTWVAGNASASA [HC2144] | 0.858 (inactive) |

Numbers sourced from the supplement of paper PMC3545927.
